target: hmGluR4 (Homo sapiens); construct: host or cells: HEK293T; assay: HEK-293 mGluR4 cells cAMP assay with EC20 L-Glutamate (HTRF); assay type: cell-based; settings: positive allosteric activity at EC20 L-Glutamate, 10 μM Forskolin, HEK293T mGluR4 cells, cAMP HTRF; read-out: hrmGluR4/HEK293T-hmGluR4 (EC50)
Overview of reported EC50 across a group of molecules:

{"columns": ["Molecule", "EC50"],
 "data": [
  ["O=C1c2ccc(C(F)(F)F)cc2NC2(CCN(Cc3ccc(F)c(F)c3)CC2)N1c1ccc(OC(F)(F)F)cc1", "< 1000 nM"],
  ["Cn1cccc1CN1CCC2(CC1)Nc1cc(Br)ccc1C(=O)N2c1ccc(OC(F)(F)F)cc1", "1000 to 10000 nM"],
  ["COc1ccc(N2C(=O)c3ccccc3NC23CCN(Cc2cc(C)cc(C)c2)CC3)cc1", "1000 to 10000 nM"],
  ["COc1ccc(N2C(=O)c3ccc(-c4cncs4)cc3NC23CCN(Cc2ccc(F)c(F)c2)CC3)cc1", "< 1000 nM"]
]}

stdin: Identify measured EC50 associated with CCOC(=O)c1ccc2c(c1)NC1(CN(C(C)c3ccc(F)cc3)C1)N(c1ccc(OC(F)(F)F)cc1)C2=O (stereo not shown)
stdout: 1000 to 10000 nM

stdin: Report EC50 for COc1ccc(N2C(=O)c3ccccc3NC23CCC(NC(=O)OC(C)(C)C)CC3)cc1 (stereo not shown)
stdout: 1000 to 10000 nM

stdin: Given the molecule COCCOc1ccc(N2C(=O)c3ccc(F)cc3NC23CN(Cc2ccc(Cl)cc2)C3)cc1 , write its reported EC50.
stdout: 1000 to 10000 nM

====

Below: a set of entries, each annotated with reported pEC50.
molecular target: hmGluR4 (Homo sapiens); construct: host or cells: HEK293T; experiment: HEK-293 mGluR4 cells cAMP assay with EC20 L-Glutamate (HTRF); format: cell-based; details: positive allosteric activity at EC20 L-Glutamate, 10 μM Forskolin, HEK293T mGluR4 cells, cAMP HTRF; read-out: hrmGluR4/HEK293T-hmGluR4 (EC50)
pEC50: −log10 of the molar value.

{"columns": ["Compound", "pEC50"],
 "data": [
  ["CC(c1ccccc1)N1CCC2(CC1)Nc1cc(Br)ccc1C(=O)N2c1ccc(Cl)cc1 (centres unmarked)", "> 6.00"],
  ["COc1ccc(N2C(=O)c3ccc(Br)cc3OC23CCN(Cc2ccc(F)c(F)c2)CC3)cc1", "5.00 to 6.00"],
  ["COc1ccc(N2C(=O)c3ccc(Cl)cc3NC23CCN(Cc2cccc(C#N)c2)CC3)cc1", "5.00 to 6.00"]
]}

Could you now look at the following compound, please?
stdin: Specify measured pEC50 for COc1ccc(N2C(=O)c3ccccc3NC23CN(Cc2ccc(Cl)s2)C3)cc1 .
stdout: 5.00 to 6.00

====

molecular target: hmGluR4 (Homo sapiens); construct: host or cells: HEK293T; assay: HEK-293 mGluR4 cells cAMP assay with EC20 L-Glutamate (HTRF); assay type: cell-based; conditions: positive allosteric activity at EC20 L-Glutamate, 10 μM Forskolin, HEK293T mGluR4 cells, cAMP HTRF; read-out: hrmGluR4/HEK293T-hmGluR4 (EC50)
Measured attribute: EC50

Before answering, review these 3 worked examples.
{"columns": ["Smiles input", "EC50"],
 "data": [
  ["COc1ccc(N2C(=O)c3ccccc3NC23CN(Cc2ccccc2C(F)(F)F)C3)cc1", "1 to 10 µM"],
  ["CCOC(=O)c1ccc2c(c1)NC1(CCN(Cc3ccc(F)c(F)c3)CC1)N(c1ccc(OC)cc1)C2=O", "< 1 µM"],
  ["COc1ccc(N2C(=O)c3ccccc3NC23CN(Cc2cccc(F)c2)C3)cc1", "1 to 10 µM"]
]}

stdin: Give the measured EC50 for COc1ccc(N2C(=O)c3ccccc3NC23CN(Cc2ccccc2OC(F)(F)F)C3)cc1
stdout: < 1 µM

stdin: Please list EC50 recorded for the compound O=C1c2ccc(-c3ccco3)cc2NC2(CCN(Cc3ccc(F)c(F)c3)CC2)N1c1ccc(OC(F)(F)F)cc1
stdout: < 1 µM

stdin: Look up and report measured EC50 for this entry: O=C1c2ccc(Br)cc2NC2(CCN(Cc3ccc(F)c(F)c3)CC2)N1c1ccc(Cl)cc1
stdout: < 1 µM

stdin: Please give the documented EC50 of COc1ccc(N2C(=O)c3ccc(C)cc3NC23CCN(Cc2ccc(F)c(F)c2)CC3)cc1
stdout: < 1 µM

stdin: Look up and report measured EC50 for this entry: CCc1ccc(CN2CC3(C2)Nc2ccccc2C(=O)N3c2ccc(OC)cc2)cc1
stdout: 1 to 10 µM

stdin: Report EC50 for COc1ccc(N2C(=O)c3ccccc3NC23CN(Cc2cccc(Cl)c2)C3)cc1
stdout: 1 to 10 µM

====

target: hmGluR4 (Homo sapiens, UniProt Q14833); construct: host or cells: HEK293T; assay: HEK-293 mGluR4 cells cAMP assay with EC20 L-Glutamate (HTRF); format: cell-based; settings: positive allosteric activity at EC20 L-Glutamate, 10 μM Forskolin, HEK293T mGluR4 cells, cAMP HTRF; read-out: hrmGluR4/HEK293T-hmGluR4 (EC50)
Sequence (Q14833 33-912): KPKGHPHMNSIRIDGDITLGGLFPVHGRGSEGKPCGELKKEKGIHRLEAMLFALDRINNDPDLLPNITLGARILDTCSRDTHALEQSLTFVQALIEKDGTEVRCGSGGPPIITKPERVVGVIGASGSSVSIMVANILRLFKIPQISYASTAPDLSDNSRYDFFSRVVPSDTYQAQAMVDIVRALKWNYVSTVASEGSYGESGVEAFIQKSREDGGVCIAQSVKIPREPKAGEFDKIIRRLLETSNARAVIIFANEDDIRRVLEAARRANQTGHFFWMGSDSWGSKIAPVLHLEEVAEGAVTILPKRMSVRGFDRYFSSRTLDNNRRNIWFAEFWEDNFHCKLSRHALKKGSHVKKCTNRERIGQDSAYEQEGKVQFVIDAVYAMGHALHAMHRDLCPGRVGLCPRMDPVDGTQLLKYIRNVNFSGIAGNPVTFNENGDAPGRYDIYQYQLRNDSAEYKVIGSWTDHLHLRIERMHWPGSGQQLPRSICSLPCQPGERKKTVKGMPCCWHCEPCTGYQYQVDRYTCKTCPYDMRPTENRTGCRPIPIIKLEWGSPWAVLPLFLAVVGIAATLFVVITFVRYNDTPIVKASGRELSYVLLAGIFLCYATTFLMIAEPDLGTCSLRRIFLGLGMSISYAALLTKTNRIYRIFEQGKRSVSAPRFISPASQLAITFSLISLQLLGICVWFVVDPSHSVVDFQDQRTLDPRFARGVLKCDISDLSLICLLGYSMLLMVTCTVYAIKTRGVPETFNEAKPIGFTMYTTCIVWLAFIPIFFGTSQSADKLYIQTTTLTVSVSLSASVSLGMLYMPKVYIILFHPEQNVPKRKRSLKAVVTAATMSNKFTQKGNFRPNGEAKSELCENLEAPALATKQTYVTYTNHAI
Measured attribute: EC50

stdin: Give the reported EC50 for this compound. N#Cc1cccc(CN2CC3(C2)Nc2cc(C(F)(F)F)ccc2C(=O)N3c2ccc(OC(F)(F)F)cc2)c1 [Compound 91]
stdout: 1000 to 10000 nM

====

Molecular target: hmGluR4 (Homo sapiens)
Construct: host or cells: HEK293T
Experiment: HEK-293 mGluR4 cells cAMP assay with EC20 L-Glutamate (HTRF)
Assay type: cell-based
Conditions: positive allosteric activity at EC20 L-Glutamate, 10 μM Forskolin, HEK293T mGluR4 cells, cAMP HTRF; read-out: hrmGluR4/HEK293T-hmGluR4 (EC50)
Description: II. Biological Assays HEK-293 mGluR4 Cells cAMP Assay with EC20 L-Glutamate Using mGluR4 suspension cell format, 10 μM Forskolin (final conc.) used to induce the production of cAMP. Test the positive allosteric activity of the compounds of the invention at EC20 (2.3 μM for mGluR4 and 4.3 μM for mGluR6) L-Glutamate, cAMP dymanic2 kit is intended for the direct quantitative determination of cAMP and its principle is based on HTRF technology. […]
Entries and their measured EC50 follow.

{"columns": ["Smiles input", "EC50"],
 "data": [
  ["COc1ccc(N2C(=O)c3ccc(-c4ccco4)cc3NC23CCN(Cc2ccc(F)c(F)c2)CC3)cc1", "< 1000 nM"],
  ["O=C1c2ccc(Br)cc2NC2(CCN(Cc3ccccc3)CC2)N1c1ccc(Cl)cc1", "1000 to 10000 nM"],
  ["COc1ccc(N2C(=O)c3ccccc3NC23CN(Cc2cccc(C)c2)C3)cc1", "1000 to 10000 nM"]
]}

stdin: Return EC50 for the following molecule: Cc1ccc(CN2CCC3(CC2)Nc2cc(Br)ccc2C(=O)N3c2ccc(OC(F)(F)F)cc2)o1
stdout: 1000 to 10000 nM

stdin: Assign EC50 to the following record: COc1ccc(N2C(=O)c3ccc(Cl)cc3NC23CCN(Cc2ccccc2Cl)CC3)cc1
stdout: < 1000 nM

stdin: Return the recorded EC50 value; entry: COc1ccc(N2C(=O)c3ccc(Br)cc3NC23CCN(Cc2ccc(F)c(F)c2)CC3)cc1
stdout: < 1000 nM

stdin: Provide EC50 value for the following molecule: O=C1c2ccc(Br)cc2NC2(CCN(Cc3ccccc3O)CC2)N1c1ccc(OC(F)(F)F)cc1
stdout: < 1000 nM

stdin: Note down EC50 recorded for Cc1cc2cc(N3C(=O)c4ccc(Br)cc4NC34CCN(Cc3ccc(F)c(F)c3)CC4)ccc2o1
stdout: < 1000 nM

====

target: hmGluR4 (Homo sapiens); construct: host or cells: HEK293T; experiment: HEK-293 mGluR4 cells cAMP assay with EC20 L-Glutamate (HTRF); assay type: cell-based; conditions: positive allosteric activity at EC20 L-Glutamate, 10 μM Forskolin, HEK293T mGluR4 cells, cAMP HTRF; read-out: hrmGluR4/HEK293T-hmGluR4 (EC50)
pEC50: −log10 of the molar value.
Measured attribute: pEC50

Use the examples below as a reference point.
{"columns": ["Compound", "Measured attribute", "Data value"],
 "data": [
  ["CSc1ccc(N2C(=O)c3ccc(Br)cc3NC23CCN(Cc2ccc(F)c(F)c2)CC3)cc1 [Compound 5]", "pEC50", "> 6.00"],
  ["CCOC(=O)c1ccc2c(c1)NC1(CN(Cc3ccccc3Cl)C1)N(c1ccc(OC(F)(F)F)cc1)C2=O [Compound 18]", "pEC50", "> 6.00"],
  ["CCOC(=O)c1ccc2c(c1)NC1(CN(C(c3ccc(F)c(F)c3)C(F)(F)F)C1)N(c1ccc(OC(F)(F)F)cc1)C2=O (centres unmarked) [Compound 34]", "pEC50", "> 6.00"],
  ["COc1ccc(N2C(=O)c3ccccc3NC23CN(Cc2ccc(Cl)c(Cl)c2)C3)cc1 [Compound 56]", "pEC50", "> 6.00"],
  ["COc1ccc(N2C(=O)c3ccccc3NC23CCN(Cc2ccccc2Cl)CC3)cc1 [Compound 111]", "pEC50", "5.00 to 6.00"]
]}

stdin: Provide pEC50, tested on hmGluR4 (Homo sapiens), for COc1ccc(N2C(=O)c3ccccc3NC23CN(Cc2ccc(Cl)cc2)C3)cc1 [Compound 85] .
stdout: 5.00 to 6.00

stdin: Provide pEC50, system hmGluR4 (Homo sapiens), entry O=C1c2ccc(Br)cc2NC2(CCN(Cc3ccccc3OC(F)(F)F)CC2)N1c1ccc(OC(F)(F)F)cc1 [Compound 46]
stdout: > 6.00

stdin: Specify pEC50 for O=C1c2ccc(Br)cc2NC2(CCN(Cc3cccc4ncccc34)CC2)N1c1ccc(OC(F)(F)F)cc1 [Compound 57] , system hmGluR4 (Homo sapiens).
stdout: > 6.00
